# measured_target: Grb2 SH2 (UniProt P62993)
# Sequence (P62993 whole entry, looked up, the tested form may be a part): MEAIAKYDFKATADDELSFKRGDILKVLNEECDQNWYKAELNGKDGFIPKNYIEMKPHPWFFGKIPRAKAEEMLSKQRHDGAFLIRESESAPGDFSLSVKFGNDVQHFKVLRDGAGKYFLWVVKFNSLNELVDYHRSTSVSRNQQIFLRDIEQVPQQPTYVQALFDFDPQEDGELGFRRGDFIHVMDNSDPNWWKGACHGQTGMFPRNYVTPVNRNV
# assay_summary: SH2 binding enrichment of the phosphorylated peptide, bacterial display (enrichment ratio); higher = better substrate or ligand; peptides without Tyr show the background;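 further: peptide library displayed on the E. coli surface as eCPX fusions, selected cells deep-sequenced, score is each peptide's frequency after selection divided by its frequency in the input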
Please provide measured SH2 binding enrichment for the entries that follow.
Just the number, please, no unit after it.

stdin: Give the value of SH2 binding enrichment reported for the following: DLRTGYSVPYG [TGM1_Y370_Y365D]
stdout: 0.906

stdin: Give the value of SH2 binding enrichment reported for the following: QSQQAYQEAFE [YWHAZ_Y149]
stdout: 0.873

stdin: Give the value of SH2 binding enrichment reported for the following: DQVEQCKKELE [LMNA_Y259_Y259C]
stdout: 0.79

stdin: Give the value of SH2 binding enrichment reported for the following: RLDRSYSFSFS [PEAR1_Y890_YF]
stdout: 0.75

stdin: Give the value of SH2 binding enrichment reported for the following: GRQGIYTENKR [GPR143_Y231_E235K]
stdout: 0.874

stdin: Give the value of SH2 binding enrichment reported for the following: FQSKHYACIRQ [TIMP3_Y182_YF]
stdout: 1.01

stdin: Give the value of SH2 binding enrichment reported for the following: DKMEAYNIDET [TEKT4_Y210]
stdout: 0.82

stdin: Give the value of SH2 binding enrichment reported for the following: QGGRRYMMIVD [GAA_Y438]
stdout: 0.965

stdin: Give the value of SH2 binding enrichment reported for the following: TLGPFYPSLLF [CRYAA_Y18_R21L]
stdout: 0.588

stdin: Give the value of SH2 binding enrichment reported for the following: RVAFQYGVTDL [MYBPC3_Y340_I336V]
stdout: 0.697

stdin: Give the value of SH2 binding enrichment reported for the following: MPPHICAITDT [MYH9_Y151_Y151C]
stdout: 1.1

stdin: Give the value of SH2 binding enrichment reported for the following: RGDCTYAPLLG [AR_Y269_M268T]
stdout: 0.88

stdin: Give the value of SH2 binding enrichment reported for the following: PCLLRYLQLDF [ASB10_Y457_R453C]
stdout: 1.12

stdin: Give the value of SH2 binding enrichment reported for the following: EWQQTYTFDSG [JUP_Y20_YF]
stdout: 0.881

stdin: Give the value of SH2 binding enrichment reported for the following: DNAYQYMLTDR [MYH7_Y164]
stdout: 0.7

stdin: Give the value of SH2 binding enrichment reported for the following: FSALDYKIFFF [WDPCP_Y210_L205F_YF]
stdout: 0.731

stdin: Give the value of SH2 binding enrichment reported for the following: GREAEYSDKHG [EPHB4_Y574]
stdout: 0.809

stdin: Give the value of SH2 binding enrichment reported for the following: SVVVPYEAPEV [TP53_Y220_P222A]
stdout: 0.79

stdin: Give the value of SH2 binding enrichment reported for the following: KILTHYKQPHT [KMT2D_Y5349_R5351Q]
stdout: 1.05
